# Test Details: Peg3 promoter luciferase inhibitors, potency, dose response, cell-based, HeLa, CREF/GAPDH counter-screen panel (AID 624167)
# Condition: CREF/GAPDH counter-screens; run 1, dose range 1, at 100 µM (top of the series)
The following compounds are listed with their measured inhibition values.
Recorded Endpoint: inhibition (%)

> print(dat)
                                   compound  units.text  readout.value
1  CC(=O)c1sc2c(c1OC(=O)c1ccc(Cl)cc1Cl)c(=O)n(-c1ccccc1)c(=S)n2-c1ccccc1           %           85.9
2  CCOC(=O)c1c(SCCN2CCCCC2)n(-c2ccccc2)c(=S)n(-c2ccccc2)c1=O           %             97
3  CC(=O)c1cccc(-c2ccnc3c2CC(C(=O)Nc2cccc(NS(C)(=O)=O)c2)O3)c1 (stereo not given)           %           51.4
4  CN(C)CC1CCC/C(=C\c2ccc(OC(=O)c3ccc(Cl)cc3)cc2)C1=O (stereo not given)           %             76
5  CCCCC(=O)NC(c1ccc(OC)cc1)c1ccc2cccnc2c1O (stereo not given)           %           21.2

----------
# Test Details: Peg3 promoter luciferase inhibitors, potency, dose response, cell-based, HeLa, CREF/GAPDH counter-screen panel (AID 624167)
# Condition: CREF/GAPDH counter-screens; run 1, dose range 1, at 100 µM (top of the series)
Is inhibition at least 70%? Then MET. If not, NOT MET.

> print(dat)
                                    compound  category.label
 1  COc1ccccc1Nc1nc(-c2sc(NC(=O)c3ccco3)nc2C)cs1         NOT MET
 2  CC1=CC2C(C(O)CC3(C)C2CC(C)C32OCOC23COCO3)C2(C)C/C(=C\O)C(=O)C=C12 (configuration not stated)             MET
 3         C=C1CC2(OC1=O)c1ccccc1CCc1ccccc12             MET
 4   OCCCNc1nccc(-c2cc(Nc3cccc(Cl)c3)ncn2)n1         NOT MET
 5  COc1ccc2c(c1)c(=Cc1ccc(N(C)C)cc1)c1cc(-c3ccccc3)[n+](C)n12             MET
 6  CCOc1cccc(/C=N/NC(=S)Nc2cc(S(=O)(=O)N3CCOCC3)ccc2N2CCOCC2)c1O         NOT MET
 7  COc1ccc(C(NC(=O)C(C)C)c2ccc3cccnc3c2O)cc1 (configuration not stated)         NOT MET
 8  Cc1cc(NC(c2ccc(Cl)cc2)c2ccc3cccnc3c2O)no1 (configuration not stated)         NOT MET
 9  COc1cc(C(=O)N/N=C(\c2ccccc2)c2ccccn2)cc(OC)c1OC         NOT MET
10  COc1cc(/C=C2\SC(=Nc3ccccc3OC)NC2=O)ccc1O         NOT MET
11            CC(C)(C)c1ccc(Oc2ccc(N)cc2)cc1             MET
12  O=C(N/N=C\c1c(O)ccc2ccccc12)c1cncc(Br)c1         NOT MET
13  COC1CC(C)C(OC)c2cc(O)cc(c2O)NC(=O)C(C)=CC=CC(C)C(OC(N)=O)C(C)=CC(C)C1OC (configuration not stated)             MET
14     CC(C)(C)c1ccc(Cn2c(=O)cnc3ccccc32)cc1             MET
15  CCCCC(=O)NC(c1ccccc1OC)c1ccc2cccnc2c1O (configuration not stated)         NOT MET
16  CN1CCC2(CC1)N=C(c1ccc(F)cc1)C(=S)N2C(=O)c1ccc(C(C)(C)C)cc1             MET
17  C/C(=N\NC(=O)c1cc(C2CC2)nc2ccccc12)c1ccc(O)cc1O         NOT MET
18    O=C(CNc1ccccc1)N/N=C/c1c(O)ccc2ccccc12         NOT MET
19  COc1ccc(/C=C2/CCCC(CN(C)C)C2=O)cc1 (configuration not stated)             MET
20  CCC(=O)NC(c1ccc(C)cc1)c1ccc2cccnc2c1O (configuration not stated)         NOT MET
21  O=C(N/N=C/c1c(O)ccc2ccccc12)c1ccc(CO)nc1         NOT MET
22  C=CCc1cccc(/C=N/NC(=O)C(C)Nc2cccc(C)c2)c1O (configuration not stated)         NOT MET
23  CC1CC(C)C(=O)C(C(CC2CC(=O)NC(=O)C2)OC(=O)CC(=O)c2ccccc2)C1 (configuration not stated)             MET
24  O=C(Nc1ccc(Cc2ccncc2)cc1)c1ccc([N+](=O)[O-])o1             MET
25  CN(C)S(=O)(=O)c1ccc(-c2csc(N/N=C/c3ccc(O)cc3)n2)cc1             MET
26  C=CCn1c(COc2ccccc2)nnc1SC(C)C(=O)N/N=C/c1cc(Cl)ccc1O (configuration not stated)         NOT MET
27         Clc1ccccc1/C=C/c1nc(-c2ccccn2)no1             MET
28  CCCC(=O)NC(c1ccc(C)cc1)c1ccc2cccnc2c1O (configuration not stated)         NOT MET
29  O=C(CCSc1nc2ccccc2s1)N/N=C/c1c(O)ccc2ccccc12         NOT MET
30  CCCC(=O)NC(c1ccc(N(C)C)cc1)c1ccc2cccnc2c1O (configuration not stated)         NOT MET
31  COc1cccc(OC)c1C(=O)Nc1cc(C)nn1-c1nc2ccccc2[nH]1         NOT MET
32  CCc1ccc(/C=C2\SC(=S)N(CCCC(=O)NC3=NCCS3)C2=O)cc1             MET
33  CC(=O)c1ccc(-c2cnc3c(NC=O)cc(-c4ccccc4Oc4ccccc4)cn23)cc1         NOT MET
34  COc1ccc(-n2cc(-c3ccccc3)c3c(N4CCOCC4)ncnc32)cc1             MET
35     O=C(O)c1ccc(N/N=C/c2ccc3c(c2)OCO3)cc1             MET
36  C=CCn1c(C)cc(C(=O)COc2ccc(C)nc2[N+](=O)[O-])c1C         NOT MET

----------
# Test Details: Peg3 promoter luciferase inhibitors, potency, dose response, cell-based, HeLa, CREF/GAPDH counter-screen panel (AID 624167)
# Condition: CREF/GAPDH counter-screens; run 1, dose range 1, at 100 µM (top of the series)
Recorded Endpoint: inhibition (%)

> print(dat)
                                    compound  recorded.endpoint  readout.value
 1  CCCCCCCNC(=O)C1(CC2CC(c3cccc(Br)c3)=NO2)CCNCC1 (centres undefined)         inhibition             95
 2  CN(C)c1c([N+](=O)[O-])cc(N2C(=O)C=CC2=O)cc1[N+](=O)[O-]         inhibition           98.9
 3         Cc1oc(-c2ccc3c(c2)OCCO3)cc1C(=O)O         inhibition           98.6
 4  O=C(CNC(=O)C(c1ccccc1)c1ccccc1)N/N=C/c1ccc(O)cc1O         inhibition           30.2
 5  O=C(N/N=C\c1c(O)ccc2ccccc12)c1ccc(Cn2cccn2)o1         inhibition           34.1
 6  CCC(C)Cn1c(O)cc2nn(-c3nc4ccccc4s3)c(=O)c-2c1C (centres undefined)         inhibition           99.6
 7  CCCCC(=O)NC(c1ccccc1)c1ccc2cccnc2c1O (centres undefined)         inhibition           47.5
 8  O=C(N/N=C/c1sc(N2CCOCC2)nc1-c1ccccc1)c1cccc(S(=O)(=O)N2CCCC2)c1         inhibition             52
 9  CCCn1nc(C(=O)Nc2nc(-c3ccccn3)cs2)c2ccccc2c1=O         inhibition           13.9
10  NS(=O)(=O)c1ccc(CCNc2nn3c(-c4ccc(F)c(Cl)c4)cnc3s2)cc1         inhibition           73.4
11  CN1C/C(=C/c2ccccc2[N+](=O)[O-])C(=O)/C(=C\c2ccccc2[N+](=O)[O-])C1         inhibition           50.1
12  CCCC(=O)NC(c1ccc(OC)cc1)c1ccc2cccnc2c1O (centres undefined)         inhibition           67.4
13  CS(=O)(=O)Nc1cccc(NC(=O)C2Cc3c(-c4ccccc4)ccnc3O2)c1 (centres undefined)         inhibition          0.156
14     CC1=NOC(=O)/C1=C\c1ccc(-c2ccccc2Br)o1         inhibition           94.2
15             O=c1cnnc(N/N=C/c2ccccn2)[nH]1         inhibition           3.68
16            Cc1ccsc1/C=N/Nc1cccc(C(=O)O)c1         inhibition           95.8
17  CS(=O)(=O)c1ccc(-c2sc3ccccc3c2C#CCCO)cc1         inhibition           90.1
18         CCc1ccn2cc(-c3ccc4c(c3)OCO4)nc2c1         inhibition           92.7
19  COc1cc(OC)c2cc(C(=O)N/N=C/c3ccccc3O)[nH]c2c1         inhibition           79.9
20  Cc1ccc(/C=C2\SC(=S)N(CCCC(=O)Nc3ccccn3)C2=O)cc1         inhibition           80.2
21  CS(=O)(=O)c1ccc(-c2cn3cc(C(=O)O)ccc3n2)cc1         inhibition           67.7
22  Cc1cc(C)c2sc(NNC(=O)c3ccc(S(=O)(=O)N4CCc5ccccc5C4)cc3)nc2c1         inhibition           58.6
23    O=C1C=CC(=O)N1c1ccc(-c2nc3ccccc3o2)cc1         inhibition            100
24     Cc1nc(C)c(C(=O)N/N=C/c2cc(Br)ccc2O)s1         inhibition          -7.82
25  Cc1ccc(-n2c(N)c(C(=O)Nc3c(C)n(C)n(-c4ccccc4)c3=O)c3nc4ccccc4nc32)cc1         inhibition           77.5
26  CN(C(=O)COC(=O)/C=C/c1cccc([N+](=O)[O-])c1)C1CCS(=O)(=O)C1 (centres undefined)         inhibition             26
27  O=C(O)c1ccc(CN2C(=O)c3cccc4c([N+](=O)[O-])ccc(c34)C2=O)cc1         inhibition           99.1
28       COc1ccc(Nc2ncnc3ccc(Br)cc23)c(OC)c1         inhibition           90.8
29  O=C(/C=C/c1ccc(Cl)c([N+](=O)[O-])c1)c1ccc(O)cc1         inhibition            100
30  Cc1cccc(OCC(=O)NCC(=O)N/N=C/c2cc(Br)cc(Br)c2O)c1         inhibition           67.3
31  NC(C(=O)O)C1ON=C(Cl)C1O (centres undefined)         inhibition             67
32  CS(=O)(=O)Nc1cccc(NC(=O)C2Cc3c(-c4cccc(F)c4)ccnc3O2)c1 (centres undefined)         inhibition           74.9
33     Oc1[nH]c2ccc(Br)cc2c1N=NC(=S)N1CCOCC1         inhibition           75.3
34                        CN(O)C(=S)c1ccccc1         inhibition           3.97
35  Cc1ccc(C)c(S(=O)(=O)N2CCN(c3ncnc4sccc34)CC2)c1         inhibition           62.6
36   O=[N+]([O-])c1ccc(S(=O)(=O)c2ccccc2)nc1         inhibition            100
37  N=c1n(CC(=O)c2ccc([N+](=O)[O-])cc2)c2ccccc2n1Cc1ccc(Cl)cc1         inhibition             86
38  CCc1ccc(/C=C2\SC(=S)N(CCCC(=O)Nc3ccccn3)C2=O)cc1         inhibition           78.8
39           O=C(COc1ccc2c(c1)CCC2)Nc1ccccn1         inhibition           95.2

Entry source: PubChem BioAssay AID624167
